- Tested on: Mtb H37Rv
- test summary: Extracellular Mtb growth on cholesterol, MABA MIC99
- Assay type: cell-based, Mycobacterium tuberculosis
- recorded conditions: Mycobacterium tuberculosis, H37RV, 336 h; cholesterol as sole carbon source; 2 weeks post-compound treatment; read-out: MABA-MIC99 (W2) H37Rv, cholesterol
For each record, write down the corresponding MIC99.

Before answering, review these 2 worked examples.
                                   molecule  recorded_endpoint  recorded_result
0  NNC(=O)c1ccncc1 [Isoniazid, isoniazid, reference compound]              MIC99         < 0.1 µM
1  O=C(NCc1ccc2[nH]ccc2c1)c1ccc(Cc2ccncc2)cc1              MIC99          > 50 µM

Now, please, on to the next molecule.
Name the reported MIC99 value associated with the molecule "CN(c1ccncc1)c1ccc(NC(=O)c2ccccc2)cc1"
> 50 µM

---

- system name: CYP126 (Mycobacterium tuberculosis)
- Sequence (P9WPN9 whole entry, the tested form may be a part): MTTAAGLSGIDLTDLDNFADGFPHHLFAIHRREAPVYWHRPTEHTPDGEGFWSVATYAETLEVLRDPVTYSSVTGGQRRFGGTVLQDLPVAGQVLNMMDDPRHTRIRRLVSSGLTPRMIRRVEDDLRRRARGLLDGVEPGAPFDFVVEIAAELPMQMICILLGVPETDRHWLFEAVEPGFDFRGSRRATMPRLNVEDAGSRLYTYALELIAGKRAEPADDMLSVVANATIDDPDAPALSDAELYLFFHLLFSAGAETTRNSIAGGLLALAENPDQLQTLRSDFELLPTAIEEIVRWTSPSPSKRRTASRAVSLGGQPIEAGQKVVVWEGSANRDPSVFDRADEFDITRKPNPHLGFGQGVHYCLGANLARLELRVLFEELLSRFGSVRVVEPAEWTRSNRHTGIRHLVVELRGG
- recorded conditions: fragment 1 mM, P450 4-6 µM; relative to DMSO (418 nm)
recorded endpoint: Δλmax (nm) CYP126, fragment screen
Numbers only, in nm.

In [3]: df
Out[3]:
          smiles_structure  recorded_result
0              COc1ncccc1N                0
1  CC(C)c1cc(C(=O)O)[nH]n1                0
2              C#Cc1cccnc1                0
3      Cc1cc(C(=O)O)[nH]n1                0
4            Cc1n[nH]cc1Br                0

Items follow; give Δλmax (nm) CYP126, fragment screen for each.
1. O=C(O)c1ccccc1-n1cccn1
2. O=C(O)c1ccc(-n2cccn2)cc1

1: 0; 2: -1

---

- system name: CYP143 (Mycobacterium tuberculosis, UniProt P9WPL3)
- Sequence (P9WPL3 whole entry, the tested form may be a part): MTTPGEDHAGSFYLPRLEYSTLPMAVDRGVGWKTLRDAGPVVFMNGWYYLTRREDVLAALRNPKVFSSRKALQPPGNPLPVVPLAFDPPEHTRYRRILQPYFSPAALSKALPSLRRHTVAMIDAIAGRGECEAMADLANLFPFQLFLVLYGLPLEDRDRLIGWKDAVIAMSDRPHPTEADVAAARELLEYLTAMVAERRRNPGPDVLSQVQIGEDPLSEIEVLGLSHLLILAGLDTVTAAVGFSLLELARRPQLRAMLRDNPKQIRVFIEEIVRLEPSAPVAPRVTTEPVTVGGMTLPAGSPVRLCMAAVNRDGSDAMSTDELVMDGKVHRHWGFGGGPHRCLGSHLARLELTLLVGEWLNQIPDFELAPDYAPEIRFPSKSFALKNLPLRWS
- recorded conditions: fragment 1 mM, P450 4-6 µM; relative to DMSO (416 nm)
Would you please tag the item yes when its Δλmax (nm) CYP143, fragment screen is 1 nm or above, and no when it is below?

>>> df
            smiles_structure  label_value
0  O=C(O)[C@@H]1Cc2ccccc2CN1           no
1      Cc1ccc(S(N)(=O)=O)nc1           no

I'd appreciate it if you could say whether "c1ccc(-c2ncc[nH]2)cc1" has Δλmax (nm) CYP143, fragment screen at least equal to 1 nm.
no

I'd appreciate it if you could say whether "OB(O)c1ccccc1" has Δλmax (nm) CYP143, fragment screen at least equal to 1 nm.
yes

---

Assay read-out IC50; system under study: CYP125 (Mycobacterium tuberculosis).
Sequence (P9WPP1 whole entry): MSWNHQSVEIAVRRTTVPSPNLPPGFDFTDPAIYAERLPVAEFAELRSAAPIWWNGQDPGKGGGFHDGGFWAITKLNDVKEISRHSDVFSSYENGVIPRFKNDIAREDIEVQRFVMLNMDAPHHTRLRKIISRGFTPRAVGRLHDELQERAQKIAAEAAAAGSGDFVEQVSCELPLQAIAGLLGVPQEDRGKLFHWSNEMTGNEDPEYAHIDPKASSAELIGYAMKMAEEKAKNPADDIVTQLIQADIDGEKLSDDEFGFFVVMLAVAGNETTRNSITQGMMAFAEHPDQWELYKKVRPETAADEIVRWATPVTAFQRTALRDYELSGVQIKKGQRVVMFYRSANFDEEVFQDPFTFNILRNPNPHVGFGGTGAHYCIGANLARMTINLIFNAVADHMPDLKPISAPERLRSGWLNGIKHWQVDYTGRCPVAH

Before answering, review these 5 worked examples.
                           smiles_structure  recorded_result
0      COc1ccc(CNc2ccc(N(C)c3ccncc3)cc2)cc1            12 µM
1  CS(=O)(=O)c1cccc(CNc2ccc(Cc3ccncc3)cc2)c1            10 µM
2  O=S(=O)(Nc1ccc(Cc2ccncc2)cc1)c1ccc(OC(F)(F)F)cc1          0.91 µM
3  O=C(Nc1ccc(Cc2ccncc2)cc1)[C@H](Cc1c[nH]c2ccccc12)NCc1ccccc1          0.79 µM
4  C[C@@H](NC(=O)c1ccc(Cc2ccncc2)cc1)c1ccccc1            33 µM

Items follow; give IC50 for each.
1. O=C(NCc1ccc2[nH]ccc2c1)c1cccc(Cc2ccncc2)c1
2. O=S(=O)(Nc1ccc(Cc2ccncc2)cc1)c1ccccc1

["9.2 µM", "1.5 µM"]

Name the reported IC50 value associated with the compound "COc1ccc(CNc2cccc(Cc3ccncc3)c2)cc1"
18 µM

Data provenance is paper PMC12305662.
